assayed_system: Voltage-dependent T-type calcium channel subunit alpha-1I (Homo sapiens, UniProt Q9P0X4)
Sequence (Q9P0X4 whole entry): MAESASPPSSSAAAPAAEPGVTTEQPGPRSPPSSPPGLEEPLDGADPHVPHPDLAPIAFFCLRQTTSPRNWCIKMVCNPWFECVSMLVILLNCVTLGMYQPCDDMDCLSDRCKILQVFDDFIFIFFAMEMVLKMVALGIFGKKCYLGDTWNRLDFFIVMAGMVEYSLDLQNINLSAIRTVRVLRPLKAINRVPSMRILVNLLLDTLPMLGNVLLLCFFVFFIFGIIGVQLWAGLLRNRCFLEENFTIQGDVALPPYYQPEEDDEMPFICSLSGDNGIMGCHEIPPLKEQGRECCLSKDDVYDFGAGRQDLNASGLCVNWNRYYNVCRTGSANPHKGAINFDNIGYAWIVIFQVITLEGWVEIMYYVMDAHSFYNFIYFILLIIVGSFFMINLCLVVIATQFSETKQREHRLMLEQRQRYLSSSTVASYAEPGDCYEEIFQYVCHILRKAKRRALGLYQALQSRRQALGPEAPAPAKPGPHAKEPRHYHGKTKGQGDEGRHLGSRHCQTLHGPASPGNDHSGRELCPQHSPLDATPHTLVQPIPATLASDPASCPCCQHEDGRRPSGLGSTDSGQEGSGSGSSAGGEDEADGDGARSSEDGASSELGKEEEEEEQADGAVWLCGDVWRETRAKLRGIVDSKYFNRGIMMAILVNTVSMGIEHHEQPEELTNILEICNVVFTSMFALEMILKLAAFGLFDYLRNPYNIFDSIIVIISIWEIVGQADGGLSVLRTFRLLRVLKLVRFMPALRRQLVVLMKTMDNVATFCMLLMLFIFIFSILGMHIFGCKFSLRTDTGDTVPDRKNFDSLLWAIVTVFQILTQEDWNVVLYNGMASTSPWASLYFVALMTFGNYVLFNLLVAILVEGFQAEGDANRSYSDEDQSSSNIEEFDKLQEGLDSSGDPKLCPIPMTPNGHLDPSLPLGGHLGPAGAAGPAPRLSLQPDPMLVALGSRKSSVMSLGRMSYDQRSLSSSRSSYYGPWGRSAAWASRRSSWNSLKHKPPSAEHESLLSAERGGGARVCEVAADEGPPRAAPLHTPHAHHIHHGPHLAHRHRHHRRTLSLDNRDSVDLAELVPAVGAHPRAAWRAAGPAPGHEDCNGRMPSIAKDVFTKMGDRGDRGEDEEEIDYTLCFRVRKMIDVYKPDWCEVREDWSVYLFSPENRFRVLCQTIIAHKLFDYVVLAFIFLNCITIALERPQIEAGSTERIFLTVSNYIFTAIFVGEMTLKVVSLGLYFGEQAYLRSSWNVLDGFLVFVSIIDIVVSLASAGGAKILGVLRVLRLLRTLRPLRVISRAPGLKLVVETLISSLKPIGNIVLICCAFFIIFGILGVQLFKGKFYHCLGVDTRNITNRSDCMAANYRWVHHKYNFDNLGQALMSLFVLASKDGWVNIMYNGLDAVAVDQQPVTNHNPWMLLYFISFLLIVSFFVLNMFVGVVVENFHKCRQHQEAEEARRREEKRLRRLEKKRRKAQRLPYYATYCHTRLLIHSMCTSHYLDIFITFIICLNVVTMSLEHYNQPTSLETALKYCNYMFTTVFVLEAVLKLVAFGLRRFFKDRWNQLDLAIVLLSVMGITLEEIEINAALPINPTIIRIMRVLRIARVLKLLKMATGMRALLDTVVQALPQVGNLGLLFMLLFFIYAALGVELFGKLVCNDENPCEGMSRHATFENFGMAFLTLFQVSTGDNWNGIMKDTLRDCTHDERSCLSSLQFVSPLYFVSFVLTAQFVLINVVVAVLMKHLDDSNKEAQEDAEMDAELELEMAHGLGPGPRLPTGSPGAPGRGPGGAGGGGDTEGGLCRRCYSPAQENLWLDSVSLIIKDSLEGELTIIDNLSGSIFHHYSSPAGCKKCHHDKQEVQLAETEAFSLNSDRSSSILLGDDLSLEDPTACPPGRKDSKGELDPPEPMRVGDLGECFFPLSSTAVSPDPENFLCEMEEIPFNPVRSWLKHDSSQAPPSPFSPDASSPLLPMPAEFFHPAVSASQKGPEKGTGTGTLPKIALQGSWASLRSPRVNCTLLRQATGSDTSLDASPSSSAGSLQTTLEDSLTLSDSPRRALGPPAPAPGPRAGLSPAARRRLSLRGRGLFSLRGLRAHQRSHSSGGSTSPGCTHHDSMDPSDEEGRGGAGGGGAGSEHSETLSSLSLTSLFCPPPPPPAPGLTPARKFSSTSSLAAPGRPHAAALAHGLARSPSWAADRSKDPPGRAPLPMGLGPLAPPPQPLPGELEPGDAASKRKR
measurement_protocol: Antagonist activity at Cav3.3 alpha1i expressed in HEK293 cells by depolarized FLIPR assay
Type: functional, cell-based
IP listing for selected compounds.

{"compound": "C[C@@H](NC(=O)Cc1ccc(C2CC2)cc1)c1ccc(OCc2ccccc2)cn1", "relation": "=", "IP (nM)": 21}
{"compound": "CC(C)(C)c1ccc(CC(=O)NC(C)(C)c2ccccc2)cc1", "relation": "=", "IP (nM)": 5480}
{"compound": "COc1ccc(CC(=O)N[C@H](C)c2ccc(OC)cn2)cc1", "relation": "=", "IP (nM)": 1740}
{"compound": "COc1ccc([C@@H](C)NC(=O)Cc2ccc(C(C)(C)O)cc2)nc1", "relation": "=", "IP (nM)": 1130}
{"compound": "CC(NC(=O)Cc1ccc(C(C)(C)C)cc1)c1ccncc1 (racemic)", "relation": ">", "IP (nM)": 10000}
{"compound": "COc1ccc([C@@H](C)NC(=O)Cc2ccc(C(C)C)cc2)nc1", "relation": "=", "IP (nM)": 45}
{"compound": "CC(NC(=O)Cc1ccc(C(C)(C)C)cc1)c1cccnc1 (racemic)", "relation": "=", "IP (nM)": 5380}
{"compound": "C[C@@H](NC(=O)Cc1ccc(C(C)(C)C)cc1)c1ccc(Cl)cn1", "relation": "=", "IP (nM)": 30}
{"compound": "C[C@@H](NC(=O)Cc1ccc(C2CC2)cc1)c1ccc(OCC(F)(F)F)cn1", "relation": "=", "IP (nM)": 6}
{"compound": "COc1ccc([C@@H](C)NC(=O)Cc2ccc(C(C)(C)C)cc2)cc1", "relation": "=", "IP (nM)": 146}

###

assayed_system: Voltage-dependent N-type calcium channel subunit alpha-1B (Homo sapiens)
measurement_protocol: Inhibition of N-type Cav2.2 at -80 mV holding potential by tandard voltage-clamp electrophysiology assay
pIC50: −log10 of the molar value.
readout_type: pIC50

{"chemical_smiles": "C[C@@H](NC(=O)Cc1ccc(C2CC2)cc1)c1ccc(OCC(F)(F)F)cn1", "result": "< 4.52"}

###

measurement_protocol: Plasma clearance in rhesus monkey at 0.5 mg/kg, iv
Assay type: ADME, organism-based, Macaca mulatta
Parameters: dose 0.5 mg/kg, route intravenous

{"chemical_smiles": "C[C@@H](NC(=O)Cc1ccc(C2CC2)cc1)c1ccc(OCC(F)(F)F)cn1", "units": "mL/min/kg", "clearance": 17}

###

assayed_system: Voltage-gated inwardly rectifying potassium channel KCNH2 (Homo sapiens, UniProt Q12809)
measurement_protocol: Inhibition of human ERG

{"chemical_smiles": "C[C@@H](NC(=O)Cc1ccc(C2CC2)cc1)c1ccc(OCC(F)(F)F)cn1", "IC50": "> 10 µM"}
{"chemical_smiles": "COc1ccc([C@@H](C)NC(=O)Cc2ccc(C(C)(C)C)cc2)nc1", "IC50": "> 10 µM"}

###

assayed_system: Voltage-dependent T-type calcium channel subunit alpha-1I (Homo sapiens, UniProt Q9P0X4)
measurement_protocol: Binding affinity to Cav3.3 alpha1i
pKi: −log10 of the molar value.
pKi listing for selected compounds.

{"chemical_smiles": "C[C@@H](NC(=O)Cc1ccc(C2CC2)cc1)c1ccc(OCC(F)(F)F)cn1", "assayed_system": "Voltage-dependent T-type calcium channel subunit alpha-1I (Homo sapiens, UniProt Q9P0X4)", "pKi": 8.92}
{"chemical_smiles": "COc1ccc([C@@H](C)NC(=O)Cc2ccc(C(C)(C)C)cc2)nc1", "assayed_system": "Voltage-dependent T-type calcium channel subunit alpha-1I (Homo sapiens, UniProt Q9P0X4)", "pKi": 8.30}

###

assayed_system: Voltage-dependent T-type calcium channel subunit alpha-1G (Homo sapiens, UniProt O43497)
Sequence (O43497 whole entry): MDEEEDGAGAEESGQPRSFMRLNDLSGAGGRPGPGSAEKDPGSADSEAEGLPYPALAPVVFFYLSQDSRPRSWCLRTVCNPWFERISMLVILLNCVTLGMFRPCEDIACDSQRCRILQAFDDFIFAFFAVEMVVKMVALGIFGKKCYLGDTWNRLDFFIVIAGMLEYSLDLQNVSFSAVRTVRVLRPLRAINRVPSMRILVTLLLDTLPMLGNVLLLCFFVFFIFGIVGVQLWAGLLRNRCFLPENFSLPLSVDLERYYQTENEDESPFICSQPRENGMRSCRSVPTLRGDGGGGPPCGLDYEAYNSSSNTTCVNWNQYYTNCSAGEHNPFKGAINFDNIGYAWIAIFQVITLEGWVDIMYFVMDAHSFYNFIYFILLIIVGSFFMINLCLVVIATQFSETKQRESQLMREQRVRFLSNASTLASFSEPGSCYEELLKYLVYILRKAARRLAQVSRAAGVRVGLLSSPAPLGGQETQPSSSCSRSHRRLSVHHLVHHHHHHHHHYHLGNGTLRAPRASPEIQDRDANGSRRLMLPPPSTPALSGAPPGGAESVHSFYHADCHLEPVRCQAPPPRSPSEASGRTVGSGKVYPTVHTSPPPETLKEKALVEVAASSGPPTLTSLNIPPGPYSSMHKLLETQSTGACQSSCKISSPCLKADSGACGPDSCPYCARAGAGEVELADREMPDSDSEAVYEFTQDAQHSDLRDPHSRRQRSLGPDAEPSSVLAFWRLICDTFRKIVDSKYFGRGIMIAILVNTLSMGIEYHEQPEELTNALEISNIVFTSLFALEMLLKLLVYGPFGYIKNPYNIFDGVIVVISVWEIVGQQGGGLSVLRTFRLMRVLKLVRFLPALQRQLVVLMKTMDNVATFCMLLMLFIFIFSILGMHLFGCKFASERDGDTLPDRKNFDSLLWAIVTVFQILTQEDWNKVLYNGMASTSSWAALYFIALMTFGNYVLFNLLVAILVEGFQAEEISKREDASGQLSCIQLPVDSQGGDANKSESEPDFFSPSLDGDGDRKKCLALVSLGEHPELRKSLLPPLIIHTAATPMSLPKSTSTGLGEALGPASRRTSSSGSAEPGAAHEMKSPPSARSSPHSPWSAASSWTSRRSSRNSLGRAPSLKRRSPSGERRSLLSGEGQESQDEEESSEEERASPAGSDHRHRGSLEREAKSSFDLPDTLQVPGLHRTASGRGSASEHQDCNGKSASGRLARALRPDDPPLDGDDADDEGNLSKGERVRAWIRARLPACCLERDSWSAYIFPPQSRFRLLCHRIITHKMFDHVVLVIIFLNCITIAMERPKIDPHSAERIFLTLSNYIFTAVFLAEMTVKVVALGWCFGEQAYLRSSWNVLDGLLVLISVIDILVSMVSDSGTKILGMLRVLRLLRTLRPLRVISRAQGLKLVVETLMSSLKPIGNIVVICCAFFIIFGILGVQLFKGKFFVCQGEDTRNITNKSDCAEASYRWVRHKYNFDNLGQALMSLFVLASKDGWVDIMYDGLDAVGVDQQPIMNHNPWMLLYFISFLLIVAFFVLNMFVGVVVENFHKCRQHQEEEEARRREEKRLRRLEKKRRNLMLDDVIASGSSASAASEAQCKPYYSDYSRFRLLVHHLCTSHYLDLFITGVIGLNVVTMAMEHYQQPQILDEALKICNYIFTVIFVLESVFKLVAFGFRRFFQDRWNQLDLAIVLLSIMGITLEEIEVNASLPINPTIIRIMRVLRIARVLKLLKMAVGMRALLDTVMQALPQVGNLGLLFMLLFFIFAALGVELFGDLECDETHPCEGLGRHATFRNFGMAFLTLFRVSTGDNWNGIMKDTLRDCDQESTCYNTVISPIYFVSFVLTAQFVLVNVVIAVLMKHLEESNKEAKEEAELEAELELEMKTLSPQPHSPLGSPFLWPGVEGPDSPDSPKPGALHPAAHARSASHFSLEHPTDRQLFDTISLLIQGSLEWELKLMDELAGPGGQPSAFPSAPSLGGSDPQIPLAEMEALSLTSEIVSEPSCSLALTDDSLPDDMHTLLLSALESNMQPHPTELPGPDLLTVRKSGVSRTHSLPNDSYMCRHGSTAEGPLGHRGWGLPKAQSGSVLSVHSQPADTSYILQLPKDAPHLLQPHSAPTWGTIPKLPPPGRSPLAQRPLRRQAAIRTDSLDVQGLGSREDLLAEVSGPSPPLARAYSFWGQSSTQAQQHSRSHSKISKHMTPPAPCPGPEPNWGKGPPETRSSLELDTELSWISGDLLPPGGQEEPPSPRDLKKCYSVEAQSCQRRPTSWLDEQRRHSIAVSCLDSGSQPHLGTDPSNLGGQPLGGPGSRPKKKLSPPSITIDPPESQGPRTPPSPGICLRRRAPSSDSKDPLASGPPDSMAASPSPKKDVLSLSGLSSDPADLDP
measurement_protocol: Inhibition of Cav3.1 alpha1G at -80 mV holding potential by tandard voltage-clamp electrophysiology assay
readout_type: IC50 (nM)

{"chemical_smiles": "C[C@@H](NC(=O)Cc1ccc(C2CC2)cc1)c1ccc(OCC(F)(F)F)cn1", "readout_type": "IC50", "measured_number": 89}

###

measurement_protocol: Volume of distribution at steady state in rat at 2 mg/kg, iv
test_conditions: in vivo
readout_type: Vd

{"chemical_smiles": "C[C@@H](NC(=O)Cc1ccc(C2CC2)cc1)c1ccc(OCC(F)(F)F)cn1", "result": "0.8 L/kg"}

###

measurement_protocol: Half life in rat at 2 mg/kg, iv
test_conditions: in vivo
readout_type: half-life (h)

{"chemical_smiles": "C[C@@H](NC(=O)Cc1ccc(C2CC2)cc1)c1ccc(OCC(F)(F)F)cn1", "units": "h", "measured_number": 1.5}

###

assayed_system: Voltage-dependent T-type calcium channel subunit alpha-1I (Homo sapiens, UniProt Q9P0X4)
measurement_protocol: Antagonist activity at Cav3.3 alpha1i expressed in HEK293 cells by depolarized FLIPR assay
Assay type: functional, cell-based
readout_type: IP (nM)

{"molecule": "C[C@@H](NC(=O)Cc1ccc(C2CC2)cc1)c1ccc(O)cn1", "readout_type": "IP", "relation": "=", "measured_number": 1720}
{"molecule": "CCCOc1ccc([C@@H](C)NC(=O)Cc2ccc(C3CC3)cc2)nc1", "readout_type": "IP", "relation": "=", "measured_number": 11}
{"molecule": "COc1ccc([C@@H](C)NC(=O)Cc2ccc(C#N)cc2)nc1", "readout_type": "IP", "relation": ">", "measured_number": 5000}
{"molecule": "C[C@@H](NC(=O)Cc1ccc(C(C)(C)C)cc1)c1ccccc1", "readout_type": "IP", "relation": "=", "measured_number": 235}
{"molecule": "C[C@H](c1ccccc1)N(C)C(=O)Cc1ccc(C(C)(C)C)cc1", "readout_type": "IP", "relation": ">", "measured_number": 10000}
{"molecule": "COc1ccc([C@@H](C)NC(=O)Cc2ccc(Cl)c(Cl)c2)nc1", "readout_type": "IP", "relation": "=", "measured_number": 252}
{"molecule": "COC(=O)c1ccc(CC(=O)N[C@H](C)c2ccc(OC)cn2)cc1", "readout_type": "IP", "relation": "=", "measured_number": 1450}
{"molecule": "COc1ccc([C@@H](C)NC(=O)Cc2ccc(Oc3ccccc3)cc2)nc1", "readout_type": "IP", "relation": "=", "measured_number": 439}
{"molecule": "COc1ccc([C@@H](C)NC(=O)Cc2ccc(C3CC3)cc2)nc1", "readout_type": "IP", "relation": "=", "measured_number": 70}
{"molecule": "COc1ccc([C@@H](C)NC(=O)Cc2ccc(C(C)(C)C)cc2)nc1", "readout_type": "IP", "relation": "=", "measured_number": 22}
{"molecule": "COc1ccc([C@@H](C)NC(=O)Cc2ccc(F)cc2)nc1", "readout_type": "IP", "relation": ">", "measured_number": 10000}
{"molecule": "COc1ccc([C@@H](C)NC(=O)Cc2ccccc2Cl)nc1", "readout_type": "IP", "relation": ">", "measured_number": 5000}
{"molecule": "COc1cccc([C@@H](C)NC(=O)Cc2ccc(C(C)(C)C)cc2)c1", "readout_type": "IP", "relation": "=", "measured_number": 146}
{"molecule": "CC(C)c1ccc(CC(=O)N[C@H](C)c2ccc(OCC(F)(F)F)cn2)cc1", "readout_type": "IP", "relation": "=", "measured_number": 5}
{"molecule": "COc1ccc([C@@H](C)NC(=O)Cc2cccc(Cl)c2)nc1", "readout_type": "IP", "relation": "=", "measured_number": 2780}
{"molecule": "CC(NC(=O)Cc1ccc(C(C)(C)C)cc1)c1ccccc1Cl (racemic)", "readout_type": "IP", "relation": "=", "measured_number": 332}
{"molecule": "CCCOc1ccc([C@@H](C)NC(=O)Cc2ccc(C(C)C)cc2)nc1", "readout_type": "IP", "relation": "=", "measured_number": 10}
{"molecule": "C[C@H](NC(=O)Cc1ccc(C(C)(C)C)cc1)c1ccccc1", "readout_type": "IP", "relation": "=", "measured_number": 4680}
{"molecule": "COc1ccc([C@@H](C)NC(=O)Cc2ccccc2)nc1", "readout_type": "IP", "relation": ">", "measured_number": 10000}
{"molecule": "CC(C)c1ccc(CC(=O)N[C@H](C)c2ccc(O)cn2)cc1", "readout_type": "IP", "relation": "=", "measured_number": 920}
{"molecule": "COc1ccc([C@@H](C)NC(=O)Cc2ccc(Cl)cc2)nc1", "readout_type": "IP", "relation": "=", "measured_number": 1330}
{"molecule": "CC(C)c1ccc(CC(=O)N[C@H](C)c2ccc(OCc3ccccc3)cn2)cc1", "readout_type": "IP", "relation": "=", "measured_number": 16}

Just for reference, ChEMBL document CHEMBL1681710 is where these values come from.
